// provenance: patent US20140112930A1

Target: T1, Mouse Ang-2FD-hFc (mouse (Mus musculus))
T1 construct: also called dimeric mouse Ang-2FD
T1 sequence (chain, as listed by the source limits assumed): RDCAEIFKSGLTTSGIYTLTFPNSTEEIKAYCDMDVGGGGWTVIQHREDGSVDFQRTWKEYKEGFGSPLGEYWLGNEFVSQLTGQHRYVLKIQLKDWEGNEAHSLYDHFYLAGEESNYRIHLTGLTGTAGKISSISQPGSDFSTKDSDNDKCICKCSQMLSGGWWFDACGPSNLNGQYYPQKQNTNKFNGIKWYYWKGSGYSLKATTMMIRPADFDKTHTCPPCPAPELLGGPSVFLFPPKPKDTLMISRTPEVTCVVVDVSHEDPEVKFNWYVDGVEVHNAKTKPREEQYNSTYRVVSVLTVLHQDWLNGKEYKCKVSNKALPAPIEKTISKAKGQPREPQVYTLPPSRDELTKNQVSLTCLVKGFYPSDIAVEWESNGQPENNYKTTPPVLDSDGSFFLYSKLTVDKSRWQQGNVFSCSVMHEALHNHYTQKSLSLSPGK
Assay: blocking ELISA, 16.67 nM antibody, Ang-2FD-hFc to coated hTie-2-mFc
This section presents binders with their documented Percent Blocking of Ang-2FD Binding to Tie-2 values.
Express it in %; write the number only.

[
  {
    "Binder": "H1H744N (antibody, V domains shown) VH: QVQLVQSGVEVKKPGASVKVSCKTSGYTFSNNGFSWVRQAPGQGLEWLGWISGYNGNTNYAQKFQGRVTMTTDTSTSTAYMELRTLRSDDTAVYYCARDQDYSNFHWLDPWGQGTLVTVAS VL: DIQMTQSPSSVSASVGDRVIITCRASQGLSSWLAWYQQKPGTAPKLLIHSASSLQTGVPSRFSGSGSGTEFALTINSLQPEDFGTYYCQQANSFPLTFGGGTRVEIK",
    "Value unit": "%",
    "Assay result": 97.6
  },
  {
    "Binder": "H1H724N (antibody, V domains shown) VH: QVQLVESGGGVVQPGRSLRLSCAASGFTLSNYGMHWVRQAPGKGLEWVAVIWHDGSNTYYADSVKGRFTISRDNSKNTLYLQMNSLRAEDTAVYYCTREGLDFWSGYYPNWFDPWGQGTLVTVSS VL: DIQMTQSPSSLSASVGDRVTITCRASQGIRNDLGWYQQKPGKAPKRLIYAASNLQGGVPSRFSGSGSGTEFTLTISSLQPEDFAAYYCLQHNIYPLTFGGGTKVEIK",
    "Value unit": "%",
    "Assay result": 97.1
  }
]

Consider the additional binder presented here.
[in] Which Percent Blocking of Ang-2FD Binding to Tie-2 reading was recorded for the binder H1H690P (antibody, human IgG1, V domains shown, Human IgG1) VH: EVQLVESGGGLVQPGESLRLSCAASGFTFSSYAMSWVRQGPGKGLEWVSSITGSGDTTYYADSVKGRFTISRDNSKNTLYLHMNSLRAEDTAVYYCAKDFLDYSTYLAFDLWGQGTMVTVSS VL: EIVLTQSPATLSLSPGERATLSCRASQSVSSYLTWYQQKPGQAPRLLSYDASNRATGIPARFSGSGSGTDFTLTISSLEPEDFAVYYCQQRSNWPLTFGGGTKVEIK ?
[out] 98
